# tested-system: human CCR8 (human, UniProt P51685 1-355)
# procedure-text: cell-based or functional assay
So basically: hCCL1 (100 nM) residual response, Protocol #3, mAb 0.5 µg/mL at 60% or higher? That is True. Lower than 60%? That is False.

Below, 3 binders whose answers are already recorded.
binder: 3-48 (antibody, V domains shown) VH: QVQLVETGGGLVRPGNSLKLSCVTSGFTFSNYRMHWLRQPPGKRLEWIAVIKVKSDNYGANYAESVKGRFTISRDDSKSSVYLQVNRLREEDTATYYCSSPTYPGSSGFAYWGQGTLVTVSA VL: DIQMTQTTSSLSASLGDRVTISCRASQDISNYLNWYQQKPDGTVKLLIYYTSRLHSGVPSRFSGSGSGTDYSLTISNLEQEDIATYFCQQGNKFPPTFGGGTKLEIN
assigned-category: True
--
binder: 3-14 (antibody, V domains shown) VH: EVQLVESGGGLVQPTGSLRLSCAASGFTFNAYAMNWVRQAPGKGLEWVARIRSKSNDYATYYGDSVKDRFTISRDDSQSMLYLQMNNLKTEDTAMYYCVRGREAYYRYDGGYYAMDYWGQGTSVTVSS VL: DIVMTQAAPSVSVTPGESVSISCTSSKSLLHSNGNTYLYWFLQRPGQSPQLLIYRMSNLASGVPDRFSGSGSGTAFTLRISRVEAEDVGVYYCMQHREYPFTFGSGTKLEIK
assigned-category: False
--
binder: 3-53 (antibody, V domains shown) VH: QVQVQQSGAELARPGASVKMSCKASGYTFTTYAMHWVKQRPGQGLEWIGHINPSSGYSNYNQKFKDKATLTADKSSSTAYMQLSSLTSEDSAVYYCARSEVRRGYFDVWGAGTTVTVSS VL: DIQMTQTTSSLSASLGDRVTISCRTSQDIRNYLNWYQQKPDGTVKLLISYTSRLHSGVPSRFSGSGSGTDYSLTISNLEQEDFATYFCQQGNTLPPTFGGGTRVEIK
assigned-category: True

We next turn to a different binder, shown below.
Quick check: does 3-52 (antibody, V domains shown) VH: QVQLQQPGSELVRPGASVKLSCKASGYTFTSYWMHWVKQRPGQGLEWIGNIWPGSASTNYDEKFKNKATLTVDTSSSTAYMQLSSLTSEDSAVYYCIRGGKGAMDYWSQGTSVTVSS VL: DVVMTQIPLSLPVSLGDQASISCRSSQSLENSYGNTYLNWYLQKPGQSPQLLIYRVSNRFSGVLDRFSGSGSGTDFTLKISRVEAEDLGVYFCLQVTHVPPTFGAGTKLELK have hCCL1 (100 nM) residual response, Protocol #3, mAb 0.5 µg/mL greater than or equal to 60%? True

Ref: patent US20260234276A1
